Numbers sourced from PubChem BioAssay (NCATS).

Target: Aldehyde dehydrogenase, mitochondrial (Homo sapiens) (UniProt P05091)
Assay: qHTS for Inhibitors of the Aldehyde Dehydrogenase Family (ALDH2) Primary screen (AID 2061308); further: nearly all actives have a fitted effect of over 55% in size
Conditions: ALDH2 enzyme inhibition qHTS, 1536-well; series mostly up to 56 µM
Records with an inconclusive call do not appear. The source made the active and inactive calls. The call rests on the fitted dose curve; in most records, active means well fitted inhibition curve with a large enough effect; inconclusive means small, poorly fitted or top-dose-only effect; inactive means flat fitted curve, though single readings scatter.

{"compound": "CCOC(=O)c1ccc(-c2ccc(OC(=O)N(C)Cc3cccc(-c4ccncc4)c3)cc2)cc1", "activity change, negative = inhibition": "inactive"}
{"compound": "Cc1cc(-c2nnc3n2CCCCC3)c(C)n1-c1ccc(C(C)(C)C)cc1", "activity change, negative = inhibition": "inactive"}
{"compound": "C[C@@H]1CCC2[C@@H](C)C(=O)OC3O[C@@]4(C)CCC1[C@]32OO4 (some centres undefined)", "activity change, negative = inhibition": "inactive"}
{"compound": "CC1(C)C(=O)N(c2ccc(C#N)c(C(F)(F)F)c2)C(=O)N1CCCCO", "activity change, negative = inhibition": "inactive"}
{"compound": "COc1cc(O)c2c(c1)CCC[C@@H](O)[C@H](O)C(=O)/C=C\\C[C@H](C)OC2=O", "activity change, negative = inhibition": "inactive"}
{"compound": "CCOC(=O)Nc1ccc(NCc2ccc(F)cc2)cc1N", "activity change, negative = inhibition": "inactive"}
{"compound": "CC1=C2C(=O)C3[C@@H](CC=C4C[C@@H](O)CC[C@@]43C)[C@@H]2CC[C@]12O[C@@H]1C[C@H](C)CN[C@H]1[C@H]2C (some centres undefined)", "activity change, negative = inhibition": "inactive"}
{"compound": "CN1C(=O)N(c2ccc(C#N)c(C(F)(F)F)c2)C(=O)[C@]1(CO)c1ccccc1", "activity change, negative = inhibition": "inactive"}
{"compound": "CN[C@H]1[C@H](O)[C@H](O[C@@H]2[C@@H](O)[C@H](O[C@H]3O[C@H]([C@H](C)O)[C@@H](O)[C@H](O)[C@H]3N)[C@@H](N)C[C@H]2N)OC[C@@]1(C)O", "activity change, negative = inhibition": "inactive"}
